Could you please report measured IC50 Ratio (vs PYY(3-36)) for the items listed next?
Biological target: human Y2 receptor (human) (UniProt P49146)
Sequence (P49146 whole entry): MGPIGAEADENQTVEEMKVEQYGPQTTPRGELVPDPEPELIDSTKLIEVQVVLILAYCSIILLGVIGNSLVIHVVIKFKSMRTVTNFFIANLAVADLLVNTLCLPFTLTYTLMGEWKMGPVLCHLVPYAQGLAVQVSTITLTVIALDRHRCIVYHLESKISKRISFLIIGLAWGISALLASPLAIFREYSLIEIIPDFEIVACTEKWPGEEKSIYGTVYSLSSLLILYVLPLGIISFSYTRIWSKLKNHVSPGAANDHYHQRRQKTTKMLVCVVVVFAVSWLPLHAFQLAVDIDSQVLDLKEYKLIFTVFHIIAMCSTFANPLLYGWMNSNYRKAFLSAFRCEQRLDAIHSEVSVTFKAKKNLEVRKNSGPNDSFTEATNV
Test: RBA: [125I]-PYY displacement, hY2R/CHO membranes
Starred links: 1 amine or outer side, 2 acyl side, 3 side chain; linkers in the order of their positions; H or OH if unused. Non-standard residues stand in square brackets, D forms with d. Primed or numbered codes have the meaning given here. *: point of attachment. Ser(Me)(3) = methylserine, COC[C@H](N[*:1])C(=O)[*:2]; 4Pal = N[C@@H](Cc1ccncc1)C(=O)O; Cha = N[C@@H](CC1CCCCC1)C(=O)O; d(αMeP) = C[C@]1(C(=O)O)CCCN1; Abu = CC[C@H](N)C(=O)O; Aib = CC(C)(N)C(=O)O; Bz = O=C(c1ccccc1)*; Ahx = NCCCCCC(=O)O
Give the figure by itself; no unit, no explanation.

Exam item: Given the entry Bz-RH[Cha]INL[4Pal]TRQR[Cha]-NH2 (SMILES CC[C@H](C)[C@H](NC(=O)[C@H](CC1CCCCC1)NC(=O)[C@H](Cc1c[nH]cn1)NC(=O)[C@H](CCCNC(=N)N)NC(=O)c1ccccc1)C(=O)N[C@@H](CC(N)=O)C(=O)N[C@@H](CC(C)C)C(=O)N[C@@H](Cc1ccncc1)C(=O)N[C@H](C(=O)N[C@@H](CCCNC(=N)N)C(=O)N[C@@H](CCC(N)=O)C(=O)N[C@@H](CCCNC(=N)N)C(=O)N[C@@H](CC1CCCCC1)C(N)=O)[C@@H](C)O) [Benzoyl-[Cha27,36, Ile28, Pya(4)31]-PYY(25-36)] , report its measured IC50 Ratio (vs PYY(3-36)).
Marked response: 7.6

Exam item: Look at this binder and give its reported IC50 Ratio (vs PYY(3-36)). Ac-[Ser(Me)(3)][dP]R[Abu][Cha][Cha]NL[Aib]TRQR[Cha]-NH2 (SMILES CC[C@H](NC(=O)[C@H](CCCNC(=N)N)NC(=O)[C@H]1CCCN1C(=O)[C@H](COC)NC(C)=O)C(=O)N[C@@H](CC1CCCCC1)C(=O)N[C@@H](CC1CCCCC1)C(=O)N[C@@H](CC(N)=O)C(=O)N[C@@H](CC(C)C)C(=O)NC(C)(C)C(=O)N[C@H](C(=O)N[C@@H](CCCNC(=N)N)C(=O)N[C@@H](CCC(N)=O)C(=O)N[C@@H](CCCNC(=N)N)C(=O)N[C@@H](CC1CCCCC1)C(N)=O)[C@@H](C)O) [Ac-[Ser(Me)23, D-Pro24, Abu26, Cha27,28,36, Aib31]-PYY(23-36)]
Marked response: 5.2

Exam item: Give the measured IC50 Ratio (vs PYY(3-36)) of Ac-[Ahx]E[dP]RH[Cha][Cha]NK[Aib]TRQR[Cha]-NH2 (SMILES CC(=O)NCCCCCC(=O)N[C@@H](CCC(=O)O)C(=O)N1CCC[C@@H]1C(=O)N[C@@H](CCCNC(=N)N)C(=O)N[C@@H](Cc1c[nH]cn1)C(=O)N[C@@H](CC1CCCCC1)C(=O)N[C@@H](CC1CCCCC1)C(=O)N[C@@H](CC(N)=O)C(=O)N[C@@H](CCCCN)C(=O)NC(C)(C)C(=O)N[C@H](C(=O)N[C@@H](CCCNC(=N)N)C(=O)N[C@@H](CCC(N)=O)C(=O)N[C@@H](CCCNC(=N)N)C(=O)N[C@@H](CC1CCCCC1)C(N)=O)[C@@H](C)O) [Ac-[Acp22, Glu23, D-Pro24, Cha27,28,36, Lys30, Aib31]-PYY(22-36)] .
Marked response: 1.7

Exam item: Please give the measured IC50 Ratio (vs PYY(3-36)) for this binder: Ac-S[d(αMeP)]RH[Cha][Cha]NL[Aib]TRQR[Cha]-NH2 (SMILES CC(=O)N[C@@H](CO)C(=O)N1CCC[C@]1(C)C(=O)N[C@@H](CCCNC(=N)N)C(=O)N[C@@H](Cc1c[nH]cn1)C(=O)N[C@@H](CC1CCCCC1)C(=O)N[C@@H](CC1CCCCC1)C(=O)N[C@@H](CC(N)=O)C(=O)N[C@@H](CC(C)C)C(=O)NC(C)(C)C(=O)N[C@H](C(=O)N[C@@H](CCCNC(=N)N)C(=O)N[C@@H](CCC(N)=O)C(=O)N[C@@H](CCCNC(=N)N)C(=O)N[C@@H](CC1CCCCC1)C(N)=O)[C@@H](C)O) [Ac-[D-αMePro24, Cha27,28,36, Aib31]-PYY(23-36)]
Marked response: 4.5
